- measured.on: serotonin transporter (SERT) (Rattus norvegicus)
- Construct: For SERT and NET assays, rat cerebral cortex was homogenized in cold SERT assay buffer; from tissue; host or cells: rat cerebral cortex
- Sequence (P31652 whole entry): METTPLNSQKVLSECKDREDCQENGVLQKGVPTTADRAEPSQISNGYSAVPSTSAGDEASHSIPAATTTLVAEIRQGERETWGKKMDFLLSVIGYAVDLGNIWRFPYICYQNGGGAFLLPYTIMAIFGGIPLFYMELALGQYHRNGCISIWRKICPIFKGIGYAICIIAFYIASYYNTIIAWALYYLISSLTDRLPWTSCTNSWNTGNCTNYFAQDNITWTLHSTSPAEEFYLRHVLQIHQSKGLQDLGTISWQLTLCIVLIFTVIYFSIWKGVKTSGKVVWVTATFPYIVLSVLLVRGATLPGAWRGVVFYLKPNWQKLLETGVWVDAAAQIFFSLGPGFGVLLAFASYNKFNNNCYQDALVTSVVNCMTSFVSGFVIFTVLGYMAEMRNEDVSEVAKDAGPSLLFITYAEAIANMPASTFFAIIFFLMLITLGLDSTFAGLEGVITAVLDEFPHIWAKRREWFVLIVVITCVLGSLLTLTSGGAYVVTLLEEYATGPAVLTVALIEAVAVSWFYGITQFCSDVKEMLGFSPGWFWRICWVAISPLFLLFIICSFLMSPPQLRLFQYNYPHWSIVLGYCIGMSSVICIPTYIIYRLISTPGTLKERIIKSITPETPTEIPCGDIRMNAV
- assay.notes: Radioligand binding to serotonin transporter, [3H]paroxetine, rat cerebral cortex homogenate
- condition.details: read-out: SERT (Ki)
pKi: −log10 of the molar value.
Consider the following compounds and their measured pKi readings.

compound	pKi
COC(=O)C1C(c2ccc(-c3cccc(C4OCCO4)c3)cc2)CC2CCC1N2C (stereo not drawn)	< 5.00
COC(=O)C1C(c2ccc(-c3cccc(C(=O)c4ccccc4)c3)cc2)CC2CCC1N2C (stereo not drawn)	< 5.52
COC(=O)[C@H]1[C@@H](c2ccc(-c3cccc(CNC(=O)OC(C)(C)C)c3)cc2)C[C@@H]2CC[C@H]1N2C	< 5.00
